Source of measurements: paper PMC7530031

Molecular target: rat GluN1–4a^FA,TL/GluN3B receptors (Rattus norvegicus, UniProt P35439+Q8VHN2, F484A/T518L)
Sequence (Q8VHN2 25-1002, other chains not shown): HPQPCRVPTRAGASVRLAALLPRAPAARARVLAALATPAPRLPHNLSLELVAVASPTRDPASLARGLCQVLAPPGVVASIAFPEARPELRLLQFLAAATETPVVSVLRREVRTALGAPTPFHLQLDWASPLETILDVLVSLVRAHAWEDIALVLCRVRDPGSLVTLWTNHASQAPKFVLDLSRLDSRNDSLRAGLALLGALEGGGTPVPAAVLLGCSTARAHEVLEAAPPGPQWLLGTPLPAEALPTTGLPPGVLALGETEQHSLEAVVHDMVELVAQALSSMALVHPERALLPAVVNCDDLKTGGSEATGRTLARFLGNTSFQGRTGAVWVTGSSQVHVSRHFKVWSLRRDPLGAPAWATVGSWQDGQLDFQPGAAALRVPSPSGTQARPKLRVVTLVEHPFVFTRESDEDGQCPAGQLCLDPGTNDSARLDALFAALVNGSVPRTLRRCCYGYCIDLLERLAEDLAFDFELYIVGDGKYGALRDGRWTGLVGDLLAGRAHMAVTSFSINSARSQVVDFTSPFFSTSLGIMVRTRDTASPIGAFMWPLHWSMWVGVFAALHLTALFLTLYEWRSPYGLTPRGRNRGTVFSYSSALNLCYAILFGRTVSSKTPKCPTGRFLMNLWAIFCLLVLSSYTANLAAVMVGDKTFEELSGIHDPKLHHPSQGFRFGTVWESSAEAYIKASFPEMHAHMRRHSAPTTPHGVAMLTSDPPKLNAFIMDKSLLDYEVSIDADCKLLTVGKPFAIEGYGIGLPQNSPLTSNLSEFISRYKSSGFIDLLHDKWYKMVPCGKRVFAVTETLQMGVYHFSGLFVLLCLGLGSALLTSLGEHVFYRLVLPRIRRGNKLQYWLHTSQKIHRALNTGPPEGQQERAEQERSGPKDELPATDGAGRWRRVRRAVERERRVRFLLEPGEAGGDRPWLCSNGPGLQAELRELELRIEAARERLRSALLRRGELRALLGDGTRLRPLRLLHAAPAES
measured_property: pIC50
On this scale, pIC50 is minus log10 of a concentration expressed in M (mol/L).

Ask: Return reported pIC50; argument: COc1ccc(OCC(c2ccc(OC)cc2)N2Cc3ccccc3C2=O)cc1 (stereo not shown) [EU1180–438]
Result: 5.28
